B1: KCNK9 (parent)
chain: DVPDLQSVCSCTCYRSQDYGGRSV

Variants of: B1
Assay: protein stability index of a GFP-peptide fusion (GPS, HEK-293T) (PSI 1-6); higher = more stable;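 further: lentivirally expressed fusions sorted by FACS into six bins by GFP to DsRed ratio, PSI derived from sequencing read proportions per bin multiplied by bin number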
Settings: c terminus: a fixed tail appended

- mutationString: "G21P"
  protein stability index: 2.06
- mutationString: "Y14F"
  protein stability index: 2.1
- mutationString: "D4I"
  protein stability index: 2.81
- mutationString: "Q17H"
  protein stability index: 2.14
- mutationString: "D1T"
  protein stability index: 1.86
- mutationString: "Y14R"
  protein stability index: 2.37
- mutationString: "L5A"
  protein stability index: 1.63
- mutationString: "G20L"
  protein stability index: 1.67
- mutationString: "Q6Y"
  protein stability index: 4.08
- mutationString: "D4S"
  protein stability index: 1.86
- mutationString: "D4K"
  protein stability index: 2.17
- mutationString: "S23N"
  protein stability index: 2.14
- mutationString: "P3Y"
  protein stability index: 1.4
- mutationString: "Y19A"
  protein stability index: 1.88
- mutationString: "V8G"
  protein stability index: 3.36
- mutationString: "C9N"
  protein stability index: 2.66
- mutationString: "V2H"
  protein stability index: 1.67
- mutationString: "C11W"
  protein stability index: 2.59
- mutationString: "V2Y"
  protein stability index: 1.82
- mutationString: "V24F"
  protein stability index: 1.13
- mutationString: "Q6L"
  protein stability index: 3.01
- mutationString: "Y19G"
  protein stability index: 1.58
